# Tested on: L1210 leukemia ip in BDF1 mice, survival T/C
# experiment.summary: NCI In Vivo Anticancer Drug Screen. Data for tumor model L1210 Leukemia (intraperitoneal) in B6D2F1 (BDF1) mice
# condition.label: endpoint: mean survival time; dose: 100.0 mg/kg/injection; schedule: Q04DX003 (ip); vehicle: saline; higher = longer survival
Toxic doses and inconclusive results are not listed.
assay.endpoint: T/C

CC(=O)OC1=CC2(OC(C)=O)CC1C1C(=O)OC(=O)C12 (stereo unspecified) = 96 % of control
C=CCNC(=S)C(C(=O)OC)C(=O)OC = 103 % of control
NCCc1ccc(N)cc1 = 95 % of control
O=S(=O)(/C(Br)=C\c1ccccc1)c1ccccc1 = 98 % of control
O=C1CC(N2C(=O)C3CCCCC3C2=O)C(=O)N1 (stereo unspecified) = 97 % of control
NC(C(=O)O)C(=O)c1ccccc1 (stereo unspecified) = 102 % of control
CCSCCO = 92 % of control
O=S(Cc1ncc2cnccn12)c1ccccc1 (stereo unspecified) = 101 % of control
CC(=O)C(=Cc1ccccc1)C(C)=O = 106 % of control
C[N+](C)(C)CCOC(=O)c1cccc(CBr)c1 = 98 % of control
CC(=O)C(N)CCC(=O)O (stereo unspecified) = 97 % of control

----------
# Test system: L1210 leukemia ip in BDF1 mice, survival T/C
# experiment.summary: NCI In Vivo Anticancer Drug Screen. Data for tumor model L1210 Leukemia (intraperitoneal) in B6D2F1 (BDF1) mice
# condition.label: endpoint: mean survival time; dose: 200.0 mg/kg/injection; schedule: Q04DX003 (ip); vehicle: saline with Tween-80; higher = longer survival
# Experimental: The antitumor activity of compounds was measured in mice bearing transplantable tumors. Survival or tumor size were measured and the results are expressed as the measurement made in the treated group (T) divided by the measurement made in the vehicle treated control group (C). The tumor model used in this assay is L1210 Leukemia (intraperitoneal) in B6D2F1 (BDF1) mice
Toxic doses and inconclusive results are not listed.
assay.endpoint: T/C

C=CCOc1ccccc1C(C)=O = 97 % of control
Cc1ccc(S(=O)(=O)N(C)c2ccc(C(=O)O)c3ccccc23)cc1 = 97 % of control
O=S(=O)(O)c1cc(O)c2c(N=Nc3c(S(=O)(=O)O)cc4cc(S(=O)(=O)O)cc(N=Nc5c(S(=O)(=O)O)cc6cc(S(=O)(=O)O)cc(O)c6c5O)c4c3O)cc(S(=O)(=O)O)cc2c1 = 96 % of control

----------
# System: L1210 leukemia ip in BDF1 mice, survival T/C
# experiment.summary: NCI In Vivo Anticancer Drug Screen. Data for tumor model L1210 Leukemia (intraperitoneal) in B6D2F1 (BDF1) mice
# condition.label: endpoint: mean survival time; dose: 200.0 mg/kg/injection; schedule: Q01DX009 (ip); vehicle: saline; higher = longer survival
Inconclusive results and toxic doses are left out.
Below is a list of entries, each paired with its recorded T/C value.
assay.endpoint: T/C

N#Cc1ncc(-c2ccc(Cl)cc2)nc1Cl = 113 % of control
CCOC(=O)CCC(N)C(=O)OCC (configuration not stated) = 88 % of control
CN(C)C(C)(C)CO = 98 % of control
NC(=O)OCCCc1ccccc1 = 105 % of control
C[N+]1=COCC1(C)C = 101 % of control
COc1cc2c(cc1OC)C(CN)C2 (configuration not stated) = 89 % of control
NC(=O)C1CCC(=O)N1 (configuration not stated) = 101 % of control

----------
# Tested on: L1210 leukemia ip in BDF1 mice, survival T/C
# experiment.summary: NCI In Vivo Anticancer Drug Screen. Data for tumor model L1210 Leukemia (intraperitoneal) in B6D2F1 (BDF1) mice
# condition.label: endpoint: mean survival time; dose: 100.0 mg/kg/injection; schedule: Q01DX009 (ip); vehicle: saline; higher = longer survival
Toxic doses and inconclusive results are not listed.
assay.endpoint: T/C

CC(C)(C)CC(C)(C)c1ccc(OCCOc2ccccc2NS(=O)(=O)c2ccc(N)cc2)cc1 = 91 % of control
CC(=O)Nc1ccc(S(=O)(=O)NO)cc1 = 100 % of control
N#Cc1ncc(-c2ccc(Cl)cc2)nc1Cl = 105 % of control
CCCCCCCCNC(C(=O)c1ccc(Cl)cc1)c1ccc(Cl)cc1 (stereo not given) = 91 % of control
Cc1cnc2c(N)nn(C)c2n1 = 110 % of control

----------
# Test system: L1210 leukemia ip in BDF1 mice, survival T/C
# experiment.summary: NCI In Vivo Anticancer Drug Screen. Data for tumor model L1210 Leukemia (intraperitoneal) in B6D2F1 (BDF1) mice
# condition.label: endpoint: mean survival time; dose: 400.0 mg/kg/injection; schedule: Q01DX001 (ip); vehicle: saline; higher = longer survival
Toxic doses and inconclusive results are not listed.
assay.endpoint: T/C

CCOC(=O)Cc1cc(=O)c2cc(C)ccc2[nH]1 = 90 % of control
Cc1nn(C2CC(O)C(O)C(CO)O2)c(=O)[nH]c1=O (centres undefined) = 98 % of control
CC1=NNC(c2ccco2)C1 (centres undefined) = 100 % of control
O=c1ccn(C2SC(CO)C(O)C2O)c(=O)[nH]1 (centres undefined) = 108 % of control
Cc1c(Cl)c(C)c(Cl)c(Cl)c1Cl = 96 % of control
CC(=O)c1ccccc1OC(F)(F)C(F)Cl (centres undefined) = 103 % of control
Cc1cc(N)c(C(=O)NN)cc1C = 113 % of control
Nc1cnccc1NCC(O)c1ccccc1 (centres undefined) = 86 % of control
O=S(=O)(/C(Br)=C\c1ccccc1)c1ccccc1 = 102 % of control
CCC(C)(C1CCC(=O)CC1)C1CCC(=O)CC1 = 93 % of control
CCCCNS(=O)(=O)c1ccc(OC)c(NC(=O)c2ccc(C(=O)Nc3cc(S(=O)(=O)NCCCC)ccc3OC)cc2)c1 = 94 % of control
COC(=O)C1=C(N)OC(C)(C)C1c1ccc(Cl)cc1 (centres undefined) = 97 % of control
COC(=O)c1cscc1C=O = 93 % of control
CNC(=O)CS(=O)(=O)c1ccc(C)cc1 = 93 % of control

----------
# System: L1210 leukemia ip in BDF1 mice, survival T/C
# experiment.summary: NCI In Vivo Anticancer Drug Screen. Data for tumor model L1210 Leukemia (intraperitoneal) in B6D2F1 (BDF1) mice
# condition.label: endpoint: mean survival time; dose: 50.0 mg/kg/injection; schedule: Q01DX009 (ip); vehicle: Klucel (hydroxypropylcellulose) (HPC); higher = longer survival
Toxic doses and inconclusive results are not listed.
// values below are reported T/C
assay.endpoint: T/C

Clc1c(CBr)c(Cl)c(CBr)c(Cl)c1CBr = 87 % of control
CN1C(=O)CN=C(c2ccccc2)c2cc(Cl)ccc21 = 100 % of control
CCCCCCCNC(=O)Nc1cccc(Cl)c1C = 101 % of control
Cc1ccc(C(C)(C)C)c(OCC2=NCCN2)c1 = 104 % of control
Nc1ccc(F)cc1[N+](=O)[O-] = 106 % of control
CCNc1ccc(/C=C2\C=Cc3ccccc32)cc1 = 102 % of control
CCOC(=O)C(=O)Cc1nc2ccccc2[nH]c1=O = 94 % of control

----------
# System: L1210 leukemia ip in BDF1 mice, survival T/C
# experiment.summary: NCI In Vivo Anticancer Drug Screen. Data for tumor model L1210 Leukemia (intraperitoneal) in B6D2F1 (BDF1) mice
# condition.label: endpoint: mean survival time; dose: 200.0 mg/kg/injection; schedule: Q04DX002 (ip); vehicle: saline; higher = longer survival
Toxic doses and inconclusive results are not listed.
Below, each entry is listed alongside its reported T/C.
assay.endpoint: T/C

CN(C)/C=C1\CCOC1=O = 119 % of control
NC(CCO)C(=O)O (configuration not stated) = 100 % of control
CCCCCOC(c1ccc2c(c1)OCO2)C(C)Br (configuration not stated) = 104 % of control
CC1CCCN(C(=O)CCCCl)C1 (configuration not stated) = 99 % of control
CC1CCCCC1C(=O)N1CCCCC1 (configuration not stated) = 96 % of control
CC1(C)OCC(C2OC(N)C(O)C2O)O1 (configuration not stated) = 97 % of control
CC[N+]1(CC)CC[N+](CC)(CC)CC1 = 96 % of control

----------
# Tested on: L1210 leukemia ip in BDF1 mice, survival T/C
# experiment.summary: NCI In Vivo Anticancer Drug Screen. Data for tumor model L1210 Leukemia (intraperitoneal) in B6D2F1 (BDF1) mice
# condition.label: endpoint: mean survival time; dose: 200.0 mg/kg/injection; schedule: Q04DX003 (ip); vehicle: Klucel (hydroxypropylcellulose) (HPC); higher = longer survival
Inconclusive results and toxic doses are left out.
Listed compounds paired with reported T/C
assay.endpoint: T/C

C/C(=N/O)c1ccncc1 = 95 % of control
NC(=O)c1ccc(Cl)c([N+](=O)[O-])c1 = 109 % of control
NC(=O)NC(Cc1ccccc1)(C(=O)O)c1ccccc1 (configuration not stated) = 98 % of control
CCOC(=O)C(CC)(OO)c1ccncc1Br (configuration not stated) = 92 % of control
CN1C(=O)OC2(CCN(Cc3ccccc3)CC2)C1=O = 90 % of control
CCCCCCCCCCCCNC(=O)CCl = 89 % of control
Cc1cccc(SC(=O)Nc2cc([N+](=O)[O-])ccc2C)c1 = 98 % of control
Cc1cc(C)c(C(=O)c2ccc([N+](=O)[O-])cc2)c(C)c1 = 95 % of control
CN(C)c1ccc(/C=N\NC(=O)CCCCC(=O)N/N=C\c2ccc(N(C)C)cc2)cc1 = 91 % of control
CC1(C)N(C(=S)Nc2ccccc2)C1(C)C = 102 % of control
COc1ccc2c(c1)CCC1C2=CC(=O)CC1c1ccco1 (configuration not stated) = 93 % of control
O=C(c1ccccc1)C1OC(=O)C1c1ccccc1 (configuration not stated) = 101 % of control
O=C(c1cccnc1)c1cccnc1 = 100 % of control
C[Si](C)Cc1cccc(F)c1 = 105 % of control
CP(c1ccccc1)c1ccccc1 = 114 % of control
O=CC(C=O)[N+](=O)[O-] = 102 % of control
Cc1c(Cl)cccc1NS(=O)(=O)c1ccc(Cl)cc1 = 119 % of control
Nc1ccc(NC(=O)c2ccc3ccccc3c2O)c(Cl)c1 = 97 % of control
ClCc1c(Cl)c(Cl)c(Cl)c(CCl)c1Cl = 98 % of control
O=C(O)CCC1CC1C(=O)c1ccccc1 (configuration not stated) = 103 % of control
Cc1cccc(C2NC(=O)c3ccccc3N2)c1 (configuration not stated) = 112 % of control
CC(C)(C)OC(=O)C(=[N+]=[N-])C(=O)OC(C)(C)C = 104 % of control
c1ccc(-c2cnoc2-c2ccccc2)cc1 = 95 % of control
COC(=O)c1ccc2cc(C(=O)OC)ccc2c1 = 101 % of control
Cc1c(C)c(CN)c(C)c(C)c1CN = 98 % of control
C(/C=N/N(c1ccccc1)c1ccccc1)=N\N(c1ccccc1)c1ccccc1 = 106 % of control
CS(=O)(=O)Cc1ccc([N+](=O)[O-])cc1 = 109 % of control
COc1ccc(P(=NS(=O)(=O)c2ccc(C)cc2)(c2ccc(OC)cc2)c2ccc(OC)cc2)cc1 = 96 % of control
CC(C)C(N)C(=O)O (configuration not stated) = 107 % of control
CC(C)OP(=O)(NC12CC3CC(CC(C3)C1)C2)OC(C)C = 96 % of control
N#CC(C(=O)c1ccccc1)(C(=O)c1ccccc1)c1cccc2ccccc12 = 96 % of control
CC(C)(C)OC(=O)C(CSSCC(NC(=O)OCc1ccccc1)C(=O)OC(C)(C)C)NC(=O)OCc1ccccc1 (configuration not stated) = 96 % of control
Cc1ccc(S(=O)(=O)Oc2ccccc2C)cc1 = 103 % of control
CC(=O)Nc1cc2c(cc1Cl)-c1ccccc1C2Br (configuration not stated) = 94 % of control
O=C(/C=C/c1ccccc1O)c1ccccc1 = 113 % of control
COc1ccccc1NC(=O)Nc1ccc(Nc2ccccc2)cc1 = 91 % of control
O=[N+]([O-])c1cc(Br)cc2c1nc(Cl)c1ccccc12 = 101 % of control
Cc1c(N=CN(C)C)c(=O)n(-c2ccccc2)n1C = 105 % of control
CN(C)c1ccc(C(=O)c2ccccc2)cc1 = 105 % of control
C=CCNC(=S)Nc1cccc(Cl)c1C = 100 % of control
Nc1ccc2c(c1)-n1cccc1C2=O = 101 % of control
COC(=O)CCc1c(C)[nH]c(C(=O)OC(C)(C)C)c1C = 98 % of control
CCOC(=O)c1csc(/C=C/c2ccc([N+](=O)[O-])o2)n1 = 92 % of control
CNC(=O)NCC1OC(OC)C(O)C(O)C1O (configuration not stated) = 107 % of control
O=C(NC(=O)C(Cl)Cl)OC1c2ccccc2-c2ccccc21 = 96 % of control
S=c1nc[nH]c2ncccc12 = 100 % of control
CCC(=O)/C=C/c1ccc(Cl)cc1 = 104 % of control
COc1ccccc1NC(=O)Nc1ccccc1F = 89 % of control
S=P(/C=C/c1ccccc1)(c1ccccc1)c1ccccc1 = 92 % of control
CCCCCCCCCCCCNc1nnc(Cl)c2ccccc12 = 97 % of control
CN=C(NC)c1ccc(Cl)c(Cl)c1 = 98 % of control
O=c1c2ccccc2[nH]c(=S)n1C1CCCCC1 = 101 % of control
